Attribution: ChEMBL document CHEMBL4619777

Below is a list of entries, each paired with its recorded inhibition value.
Biological target: Genome polyprotein (dengue virus type 2)
Assay: Inhibition of Dengue virus serotype 2 NS2B-NS3 protease transfected in human HeLa cells at 12.5 uM measured after 24 hrs by Renilla-luciferase reporter gene assay relative to control
Assay type: cell-based
Please give a number only; it is taken to be in %.

Would you please look over these solved cases?
Chem Smiles | Metric Name | Unit String | Numeric Value
CCCCCC(=O)N[C@H](C(=O)NCc1ccc(NC(=N)N)cc1)c1ccc(OCc2c(Cl)cccc2Cl)cc1.O=C(O)C(F)(F)F | inhibition | % | 41.5
N=C(N)Nc1ccc(CNC(=O)[C@@H](NC(=O)c2ccc(-c3ccc(Cl)cc3)cc2)c2ccc(OCc3ccccc3)cc2)cc1.O=C(O)C(F)(F)F | inhibition | % | 56.6

Q: Looking for the measured inhibition of "CCCCCC(=O)N[C@H](C(=O)NCc1ccc(NC(=N)N)cc1)c1ccc(OCc2cccc(OC)c2)cc1.O=C(O)C(F)(F)F" , can you help?
A: 26

Q: Looking for the measured inhibition of "CCCCCC(=O)N[C@H](C(=O)NCc1ccc(CN(C)C)cc1)c1ccc(OCc2ccccc2)cc1" , can you help?
A: 65.7

Q: Looking for the measured inhibition of "CCCCCC(=O)N[C@H](C(=O)NCc1ccc(NC(=N)N)cc1)c1ccc(OCc2ccc(C(F)(F)F)cc2)cc1.O=C(O)C(F)(F)F" , can you help?
A: 66

Q: Looking for the measured inhibition of "N=C(N)Nc1ccc(CNC(=O)[C@@H](NC(=O)CC2CCCCC2)c2ccc(OCc3ccccc3)cc2)cc1.O=C(O)C(F)(F)F" , can you help?
A: 41.7

Q: Looking for the measured inhibition of "CCCCCC(=O)N[C@H](C(=O)Nc1ccc(N)cc1)c1ccc(OCc2ccccc2)cc1.O=C(O)C(F)(F)F" , can you help?
A: 49.5

Q: Looking for the measured inhibition of "CCCCCC(=O)N[C@@H](C(=O)NCc1ccc(NC(=N)N)cc1)c1ccc(OCc2ccc(C(F)(F)F)cc2)cc1.O=C(O)C(F)(F)F" , can you help?
A: 44.6

Q: Looking for the measured inhibition of "N=C(N)Nc1ccc(CNC(=O)[C@@H](NC(=O)c2ccccc2)c2ccc(OCc3ccccc3)cc2)cc1.O=C(O)C(F)(F)F" , can you help?
A: 10.5

---

Below is a list of entries, each paired with its recorded inhibition value.
Molecular target: Genome polyprotein (dengue virus type 2) (UniProt P29990)
Experiment: Inhibition of Dengue virus serotype 2 NS2B-NS3 protease expressed in Escherichia coli BL21 lambda (DE3) cells at 50 uM using Abz-Nle-Lys-Arg-Arg-Ser-3-(NO2)Tyr as substrate preincubated for 15 mins followed by substrate addition and measured for 15 mins by FRET assay relative to control

Would you please look over these solved cases?
Chem Smiles | inhibition
CCCCCC(=O)N[C@H](C(=O)NCc1ccc(C#N)cc1)c1ccc(OCc2ccccc2)cc1 | < 10%
CC(=O)N[C@H](C(=O)NCc1ccc(NC(=N)N)cc1)c1ccc(OCc2ccccc2)cc1.O=C(O)C(F)(F)F | < 10%
CCCCCC(=O)N[C@H](C(=O)NCc1ccccc1)c1ccc(OCc2ccccc2)cc1 | < 10%
CCCCCC(=O)N[C@H](C(=O)NCc1ccc(CN(C)C)cc1)c1ccc(OCc2ccccc2)cc1 | < 10%

Q: Looking for the measured inhibition of "CCCCCC(=O)N[C@H](C(=O)NCCCCCCNC(=N)N)c1ccc(OCc2ccccc2)cc1" , can you help?
A: < 10%

Q: Looking for the measured inhibition of "CCCCCC(=O)N[C@H](C(=O)NCCN)c1ccc(OCc2ccccc2)cc1" , can you help?
A: < 10%
